experiment_description: chemical genetic growth profiling, strain panel (AID 1159580);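 also: tested at 20 µM; growth read once vehicle control cultures reached saturation at 30 °C; 1 = growth at the plate median or of vehicle wells; lower values mean less growth of the strain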
measurement_conditions: S. cerevisiae deletion strains, growth OD, locus YDL028C, strain MPS1
Screen size: about 5,500 compounds; about 2,000 (36%) were called active. About 18% were inconclusive and are not listed. Rule as the data show it: active = normalized growth mostly below about 0.91 (no sharp cut-off); inconclusive = no clear call, values can overlap the other calls; inactive = mostly above about 0.92. The list shows a part of the results.
Lab note: assign the record to one of YES for active, NO for inactive

COC(=O)c1sccc1S(=O)(=O)Nc1cc(C(F)(F)F)cc(C(F)(F)F)c1
NO
CC(C)(C)c1ccc(-c2cc(NC(=O)c3ccc(Cl)cc3)n[nH]2)cc1
NO
O=C(Nc1cc(Cl)cc(Cl)c1)c1cc(Cl)ccc1O
NO
C=CCC1C(=O)N(S(=O)(=O)c2ccc(Cl)cc2)N=C1CCC (stereo unspecified)
NO

Let us examine a further case.
Asked: What call does the record list for O=S(=O)(Nc1cc(C(F)(F)F)cc(C(F)(F)F)c1)c1ccc(Cl)s1 ?
Given back: NO

###

experiment_description: chemical genetic growth profiling, strain panel (AID 1159580)
measurement_conditions: S. cerevisiae deletion strains, growth OD, locus YPL256C, strain CLN2
In all, about 5,500 compounds went through this assay and about 2,000 (36%) were called active. Inconclusive results (about 18%) are left out. No stated cut-off is given here; in the data, active means normalized growth mostly below about 0.91 (no sharp cut-off); inconclusive means no clear call, values can overlap the other calls; inactive means mostly above about 0.92. The list shows a part of the results.
Give one outcome, nothing more. List: 1 (yes) for active, 0 (no) for inactive

As a guide, the following entries are already answered.
CC1SC(c2cccnc2)N(c2ccc(Cl)cc2)C1=O (configuration not stated)
1 (yes)
CON
0 (no)
O=Cc1ccccc1O[C@@H]1O[C@H](CO)[C@H](O)[C@@H](O)[C@H]1O
0 (no)
N[C@@H](C(=O)N[C@@H]1C(=O)N2C(C(=O)O)=C(Cl)CS[C@H]12)c1ccccc1
0 (no)
CC1=C(C(=O)O)N2C(=O)[C@@H](NC(=O)[C@@H](N)c3ccc(O)cc3)[C@H]2SC1
0 (no)

Asked: Dear all, I need the recorded test outcome for O=c1c(O)c(-c2ccccc2)oc2cccc(O)c12 , thank you.
Given back: 0 (no)

Asked: Next compound: CN1C(=O)CC[C@H]1c1cccnc1
Given back: 0 (no)

Asked: Entry to check: CC(C)Sc1c(Cl)cccc1NC(=O)Nc1cccc(C(F)(F)F)c1
Given back: 0 (no)

Asked: What about CCCc1ncc(C[n+]2ccccc2C)c(N)n1 ?
Given back: 0 (no)

Asked: What do we get for COC(=O)c1cccc(NS(=O)(=O)c2ccc(Cl)c(Cl)c2)c1 ?
Given back: 0 (no)

Asked: Then what about the compound O=S(=O)(Nc1cc(C(F)(F)F)cc(C(F)(F)F)c1)c1ccc(Cl)s1 ?
Given back: 1 (yes)

Asked: Would you kindly repeat that for COc1cc2c(cc1OC)C(C)NCC2 (configuration not stated) ?
Given back: 0 (no)

###

experiment_description: chemical genetic growth profiling, strain panel (AID 1159580)
measurement_conditions: S. cerevisiae deletion strains, growth OD, locus YNL233W, strain BNI4
In all, about 5,500 compounds went through this assay and about 2,000 (36%) were called active. Roughly 18% stayed inconclusive and do not appear here. No stated cut-off is given here; in the data, active means normalized growth mostly below about 0.91 (no sharp cut-off); inconclusive means no clear call, values can overlap the other calls; inactive means mostly above about 0.92. This is one part of the list.
Would you mind answering with one of these outcomes? active, inactive

Consider the worked cases shown below.
O=C(O)c1cc(=O)c2ccccc2[nH]1
inactive
O=C1C=CC(=O)c2c(O)cccc21
inactive
CC[C@H]1OC(=O)[C@H](C)[C@@H](O[C@H]2C[C@@](C)(OC)[C@@H](O)[C@H](C)O2)[C@H](C)[C@@H](O[C@@H]2O[C@H](C)C[C@H](N(C)C)[C@H]2O)[C@](C)(O)C[C@@H](C)/C(=N/OCOCCOC)[C@H](C)[C@@H](O)[C@]1(C)O
inactive
O=C(O)c1cccnc1C(=O)O
inactive
O=C(O)CCC(=O)OC[C@@H](NC(=O)C(Cl)Cl)[C@H](O)c1ccc([N+](=O)[O-])cc1
inactive
CC(C)[C@@H]1CC[C@@H](C)CC1=O
inactive

Asked: # lookup: test call for CN1C(=O)CC[C@H]1c1cccnc1
Given back: inactive

Asked: And then O=C(O)c1cc(O)c2c(c1)C(=O)c1cc(O)cc(O)c1C2=O , what is it?
Given back: inactive

Asked: Consider next the compound Cc1cc(O)c2c(c1)C(=O)c1cccc(O)c1C2=O in the same way.
Given back: inactive

###

experiment_description: chemical genetic growth profiling, strain panel (AID 1159580);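 also: tested at 20 µM; growth read once vehicle control cultures reached saturation at 30 °C; 1 = growth at the plate median or of vehicle wells; lower values mean less growth of the strain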
measurement_conditions: S. cerevisiae deletion strains, growth OD, locus YNL020C, strain ARK1
Out of some 5,500 compounds screened, about 2,000 (36%) were called active. Another 18% or so got no clear call; they are omitted. No stated cut-off is given here; in the data, active means normalized growth mostly below about 0.91 (no sharp cut-off); inconclusive means no clear call, values can overlap the other calls; inactive means mostly above about 0.92. The list shows a part of the results.
Select the correct class. Options are active, inactive and nothing else.

A selection of reference data follows.
S=C(NCc1cccs1)Nc1cc(Cl)cc(Cl)c1
inactive
O=[N+]([O-])c1ccc(Sc2ccccc2)c([N+](=O)[O-])c1
inactive
COC(=S)Nc1cc(Cl)cc(Cl)c1
inactive
CCOC(=O)c1ccc(N=Cc2cc(Cl)cc(Cl)c2O)cc1
active
CC(C)OC(=O)Nc1cc(Cl)cc(Cl)c1
inactive

Asked: Check the results log: what was the call for COC(=O)c1cc(I)c(OC(C)=O)c(I)c1 ?
Given back: inactive

Asked: Another compound to look at: CC1SC(c2cccnc2)N(c2ccc(F)cc2F)C1=O (stereo not given)
Given back: inactive

Asked: Also O=C(Nc1cc(Cl)cc(Cl)c1)c1cc(Cl)ccc1O , if possible.
Given back: active

Asked: Same lookup for O=C1C(NCc2ccccc2)=C(NCc2ccccc2)C(=O)c2ccccc21 , please.
Given back: inactive

Asked: O=S(=O)(Nc1cc(C(F)(F)F)cc(C(F)(F)F)c1)c1ccc(Cl)s1 , same question.
Given back: inactive

###

experiment_description: chemical genetic growth profiling, strain panel (AID 1159580);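 also: tested at 20 µM; growth read once vehicle control cultures reached saturation at 30 °C; 1 = growth at the plate median or of vehicle wells; lower values mean less growth of the strain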
measurement_conditions: S. cerevisiae deletion strains, growth OD, locus YCL069W, strain vba3, hits give low values
About 2,000 (36%) of roughly 5,500 compounds were called active. Inconclusive results (about 18%) are left out. The list shows a part of the results.
Below: a set of entries, each annotated with reported normalized growth.
Answer with a number only.

Consider the reported normalized growth for these compounds:
CN1CCC[C@H]1c1cccnc1
1.04
CCC1(C2=NCCN2)Cc2ccccc2O1 (stereo not drawn)
1.01
CCCN(CCC)c1c([N+](=O)[O-])cc(C(F)(F)F)cc1[N+](=O)[O-]
0.977
O=C(Nc1ccc([N+](=O)[O-])cc1Cl)c1cc(Cl)ccc1O
0.959
CC(=O)c1ccc[nH]1
1

Asked: Looking for the measured normalized growth of NC(Cc1ccc(Cl)cc1)C(=O)O (stereo not drawn) , can you help?
Given back: 1

Asked: Note, next up: Cn1c(=O)[nH]c2ncn(C)c2c1=O
Given back: 0.968

Asked: Another: C[N+]12CCC(CC1)C(OC(=O)C(O)(c1ccccc1)c1ccccc1)C2 (stereo not drawn)
Given back: 0.998

Asked: Similarly, COc1ccccc1OCC(O)COC(N)=O (stereo not drawn) ?
Given back: 0.996

###

experiment_description: chemical genetic growth profiling, strain panel (AID 1159580);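 also: tested at 20 µM; growth read once vehicle control cultures reached saturation at 30 °C; 1 = growth at the plate median or of vehicle wells; lower values mean less growth of the strain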
measurement_conditions: S. cerevisiae deletion strains, growth OD, locus YLR085C, strain ARP6, hits give low values
The campaign covered roughly 5,500 compounds. About 2,000 (36%) were called active. Not shown: some 18% with an inconclusive outcome. Some of the results follow.
measured_quantity: normalized growth
Please state the value as a number alone, without comment.

Recorded results for 5 compounds are shown here.
COc1ccccc1N1CC(C)(C)C(=O)N(C(=O)c2c(F)cccc2Cl)C1=S
0.984
Cc1cc(C(F)(F)F)n2nc(-c3ccc(C(C)(C)C)cc3)cc2n1
0.899
COc1c([N+](=O)[O-])cc(C(F)(F)F)cc1[N+](=O)[O-]
0.823
FC(F)(F)c1cc(-c2ccco2)nc2cc(-c3ccco3)nn12
0.829
Cc1ccc(S(=O)(=O)N2CCCCCC2)cc1
0.921

Asked: Bench note: what normalized growth did O=[N+]([O-])c1cc(C(F)(F)F)ccc1Oc1cc(C(F)(F)F)cc(C(F)(F)F)c1 show?
Given back: 1.01

Asked: Would you kindly repeat that for FC(F)(F)c1cc(-c2ccc(Cl)cc2)nc2cc(C3CC3)nn12 ?
Given back: 1.05

Asked: Param item: C=CC1CN2CCC1CC2C(OC(C)=O)c1ccnc2ccc(OC)cc12 (stereo not drawn)
Given back: 0.975

Asked: Could you do the same for O=[N+]([O-])c1cc(C(F)(F)F)cc([N+](=O)[O-])c1Oc1ccc(Cl)c(Cl)c1 , please?
Given back: 0.0698

Asked: Now the compound CCOC(=O)c1ccc(N2CC3CCCCN3C2c2ccc(Cl)c(Cl)c2)cc1 (stereo not drawn)
Given back: 0.97

Asked: Next up: O=C(Cc1ccccc1)NC1CCN(S(=O)(=O)c2ccc(Cl)cc2)CC1
Given back: 1.01

Asked: Same thing, different compound: Cc1ccc(S(=O)(=O)N2CCC(C(c3ccccc3)c3ccccc3)CC2)cc1
Given back: 0.989

Asked: Item: Cc1ccc(S(=O)(=O)N2CCN(CCOc3ccccc3)CC2)cc1
Given back: 0.966
